Would you kindly list MIC for each of these compounds?
System: N. gonorrhoeae
Experiment: MIC determination, agar dilution (CLSI)
Type: cell-based, Neisseria gonorrhoeae
Settings: Neisseria gonorrhoeae, screening panel N. gonorrhoeae isolate I; read-out: Minimum inhibitory concentration
One number for each entry, in µg/mL.

compound | MIC, µg/mL
Cc1c(CN(C)C(=O)/C=C/c2cnc3c(c2)CCC(=O)N3)oc2ccccc12 [Debio 1452, reference compound] | 1

Parameters: items (list). Returns: MIC for each item.
1. Cc1c(CN(C)C(=O)/C=C/c2cnc3c(c2)N[C@H](C)[C@H](O)C(=O)N3)oc2ccccc12 [Debio 1453]
2. Cc1c(CN(C)C(=O)/C=C/c2cnc3c(c2)NCCC(=O)N3)oc2ccccc12 [Compound 1]
3. Cc1c(CN(C)C(=O)/C=C/c2cnc3c(c2)N[C@H](C)CC(=O)N3)oc2ccccc12 [Compound 2]

1. 0.03
2. 0.125
3. 0.125
